- Tested Target: T1, human CD4 on cells (SKW3 cells; human PBMCs) (human, UniProt P01730 26-458)
- T1 construct: whole, on cells; SKW3 CD4 knockout cells served as the negative cell line; also called hCD4
- Protocol Details: FACS binning on SKW3 cells pre-incubated with supernatant; competitor OKT4-A488, its signal read; background 2163, max binding 8200
Parameter: SKW3 FACS Binning OKT4 A488

Binder	Quantitative Result
75110_01K10A (antibody, V domains shown, Tested as non-clonal AlivaMab Mouse Kappa hybridoma supernatant: human variable domains and human kappa, mouse Fc) VH: EVQLVESGGALVQPGGSLRLSCAASGFTFRNYDMHWVRQATGKGLEWVSTIGTAGDTYYPGSVKGRFTISRENAKNSLYLQMNSLRAGDTAVYYCARGGDYYYGMDVWGQGTTVTVSS VL: EIVLTQSPDTLSLSPGERATLSCRASQSLSSVYLAWYQQKPGQAPRLLIYGASSRATGIPDRFSGTGSGTDFTLTISRLEPEDFAVYYCQQYGSSPFTFGPGTKVDIK	10800
75110_01G11A (antibody, IgG1, V domains shown, Tested as non-clonal AlivaMab Mouse Kappa hybridoma supernatant: human variable domains and human kappa, mouse Fc) VH: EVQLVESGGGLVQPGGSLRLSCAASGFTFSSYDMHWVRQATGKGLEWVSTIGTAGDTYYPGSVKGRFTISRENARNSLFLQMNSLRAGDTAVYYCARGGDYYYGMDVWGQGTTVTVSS VL: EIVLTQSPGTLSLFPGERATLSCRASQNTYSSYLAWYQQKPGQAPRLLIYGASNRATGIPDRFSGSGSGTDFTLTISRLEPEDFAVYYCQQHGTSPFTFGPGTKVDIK	10100
75110_01J17A (antibody, IgG1, V domains shown, Tested as non-clonal AlivaMab Mouse Kappa hybridoma supernatant: human variable domains and human kappa, mouse Fc) VH: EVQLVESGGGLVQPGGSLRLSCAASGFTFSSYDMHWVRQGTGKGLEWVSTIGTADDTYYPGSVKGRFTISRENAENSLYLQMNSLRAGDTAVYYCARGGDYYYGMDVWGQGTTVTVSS VL: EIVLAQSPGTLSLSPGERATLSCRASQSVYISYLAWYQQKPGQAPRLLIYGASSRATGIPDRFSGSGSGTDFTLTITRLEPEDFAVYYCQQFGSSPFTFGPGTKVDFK	10000

All figures here come from patent US20220112288A1.
